The values you see were collected from paper PMC3642127.

- experimentalSystem: T1, TRBP-WT (human, UniProt Q15633 1-366)
- T1 sequence: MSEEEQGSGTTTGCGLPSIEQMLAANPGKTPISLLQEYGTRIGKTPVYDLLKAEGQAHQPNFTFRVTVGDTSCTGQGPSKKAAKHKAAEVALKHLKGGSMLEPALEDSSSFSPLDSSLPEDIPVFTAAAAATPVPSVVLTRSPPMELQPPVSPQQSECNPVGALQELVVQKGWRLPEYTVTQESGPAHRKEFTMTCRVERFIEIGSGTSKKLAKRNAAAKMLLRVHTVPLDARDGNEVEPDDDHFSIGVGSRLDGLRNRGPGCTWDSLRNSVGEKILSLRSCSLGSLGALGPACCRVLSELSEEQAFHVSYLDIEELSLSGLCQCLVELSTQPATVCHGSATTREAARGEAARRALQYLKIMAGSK
- assayInfo: EMSA; complex 1 (monomer); EMSA: 20 mM Tris pH 7.5, 150 mM NaCl, 2 mM EDTA, 1 mM 2-mercaptoethanol, 1 mM DTT, 50 ng/ul salmon sperm DNA, 0.4 U/ul RNasin, 0.5 nM 32P-siRNA, 30 min on ice
- measurementContext: protein: recombinant; tags: N-His6;C-myc; label: 32P guide strand; 2 nt 3' overhangs
readout: pKd
Answers are plain numbers, as −log10 of the molar value.

siLuc-18 (dsRNA) RNA 1: GGCGCCGGGCCUUUCUUUAUG RNA 2: UAAAGAAAGGCCCGGCGCCAU | 8.24

Fill in pKd for each of the 2 binders listed.
1. siLuc-1430 (dsRNA) RNA 1: CGGCGGCGGGAAGUUCACCGG RNA 2: GGUGAACUUCCCGCCGCCGUU
2. siLuc-48 (dsRNA) RNA 1: CCAGCGGUUCCAUCUUCCAGC RNA 2: UGGAAGAUGGAACCGCUGGAG

Response:
8.24
7.48
